# key: entry, value: AUC
Test: Study 1 plasma pharmacokinetics of verinurad, allopurinol and oxypurinol
Format: in vivo, human
Settings: human, plasma, oral, healthy Asian participants, 24 mg verinurad + 300 mg allopurinol QD, Day 7; geometric mean (gCV%); read-out: AUCτ
Use ng·h/mL as the unit, but write only the number.

Compound | AUC (ng·h/mL)
CC(C)(Sc1ccncc1-c1ccc(C#N)c2ccccc12)C(=O)O | 478

Form field: reported AUC of Oc1ncnc2[nH]ncc12 [allopurinol, reference compound]
6020

I am curious: what AUC value has been reported for O=c1[nH]c(=O)c2c[nH]nc2[nH]1 ?
120000

* * *

Test: Study 2 plasma pharmacokinetics of verinurad
Type: in vivo, human
Details: human, plasma, oral, 12 mg, healthy non-Asian participants, multiple-dose assessment 12 mg verinurad QD, Day 1; geometric mean (gCV%); read-out: Cmax
Endpoint Label: Cmax (ng/mL)
Form entry: value (ng/mL) — number only.

Bench note: what Cmax did CC(C)(Sc1ccncc1-c1ccc(C#N)c2ccccc12)C(=O)O show?
29.9

* * *

Assay: Study 1 plasma pharmacokinetics of verinurad, allopurinol and oxypurinol
Type: in vivo, human
Conditions: human, plasma, oral, healthy Chinese participants, 12 mg verinurad + 300 mg allopurinol, Day 1; geometric mean (gCV%); read-out: AUCτ
As shown below, each of these compounds has a reported AUC value.
Number only, in ng·h/mL; omit the unit.

Some entries whose results are on file:
Compound | Unit Of Measure | AUC
O=c1[nH]c(=O)c2c[nH]nc2[nH]1 | ng·h/mL | 201000
Oc1ncnc2[nH]ncc12 [allopurinol, reference compound] | ng·h/mL | 6210

# context switch: different compound, same AUC
I would be grateful if you could share the reported AUC for CC(C)(Sc1ccncc1-c1ccc(C#N)c2ccccc12)C(=O)O .
226

* * *

Assay: Study 1 plasma pharmacokinetics of verinurad, allopurinol and oxypurinol
Format: in vivo, human
Settings: human, plasma, oral, healthy Chinese participants, 12 mg verinurad + 300 mg allopurinol, Day 1; median (range); read-out: tmax
Endpoint Label: Tmax (h)
Quick note: give the figure in h, leave out the unit.

Molecule | Unit Of Measure | Observed Measurement
Oc1ncnc2[nH]ncc12 [allopurinol, reference compound] | h | 1.52

Continue with the next molecule.
# Tmax lookup, item O=c1[nH]c(=O)c2c[nH]nc2[nH]1
2

* * *

Assay: Study 2 plasma pharmacokinetics of verinurad
Assay type: in vivo, human
Settings: human, plasma, oral, 4.5 mg, healthy non-Asian participants, single dose 4.5 mg verinurad; geometric mean (gCV%); read-out: AUC
Endpoint Label: AUC

Any idea what AUC was measured for CC(C)(Sc1ccncc1-c1ccc(C#N)c2ccccc12)C(=O)O ?
86.8 ng·h/mL

* * *

Test: Study 1 plasma pharmacokinetics of verinurad, allopurinol and oxypurinol
Type: in vivo, human
Conditions: human, plasma, oral, healthy Asian participants, 24 mg verinurad + 300 mg allopurinol QD, Day 1; geometric mean (gCV%); read-out: Cmax
Cmax values, listed per item
Quick note: number first, unit second.

What value of measured Cmax is listed for O=c1[nH]c(=O)c2c[nH]nc2[nH]1 ?
11100 ng/mL

Cmax lookup needed for CC(C)(Sc1ccncc1-c1ccc(C#N)c2ccccc12)C(=O)O , thanks.
71.2 ng/mL

Fill in: Cmax of Oc1ncnc2[nH]ncc12 [allopurinol, reference compound] is ___
1770 ng/mL

* * *

Assay: Study 2 plasma pharmacokinetics of verinurad
Assay type: in vivo, human
Settings: human, plasma, oral, 6 mg, healthy non-Asian participants, single dose 6 mg verinurad; geometric mean (gCV%); read-out: AUC
Endpoint Label: AUC (ng·h/mL)
The reply should contain only the number, in ng·h/mL.

Could you share which AUC value was measured for CC(C)(Sc1ccncc1-c1ccc(C#N)c2ccccc12)C(=O)O ?
102

* * *

Experiment: Study 1 plasma pharmacokinetics of verinurad, allopurinol and oxypurinol
Format: in vivo, human
Conditions: human, plasma, oral, healthy Asian participants, 24 mg verinurad + 300 mg allopurinol QD, Day 7; median (range); read-out: tmax
Endpoint Label: Tmax (h)
Answer in h, number only, no unit symbol.

Could you tell me which Tmax is on file for Oc1ncnc2[nH]ncc12 [allopurinol, reference compound] ?
3

* * *

Reported AUC values are given for each entry in this list.
Assay: Study 1 plasma pharmacokinetics of verinurad, allopurinol and oxypurinol
Assay type: in vivo, human
Conditions: human, plasma, oral, healthy Chinese participants, 12 mg verinurad + 300 mg allopurinol, Day 1; geometric mean (gCV%); read-out: AUC
A complete answer gives the number followed by the unit.

Examples from the recorded data:
Molecule | AUC
Oc1ncnc2[nH]ncc12 [allopurinol, reference compound] | 6210 ng·h/mL
CC(C)(Sc1ccncc1-c1ccc(C#N)c2ccccc12)C(=O)O | 295 ng·h/mL

# ---- query molecule ----
Endpoint output: AUC of O=c1[nH]c(=O)c2c[nH]nc2[nH]1 . Value?
342000 ng·h/mL

* * *

Assay: Study 2 plasma pharmacokinetics of verinurad
Type: in vivo, human
Conditions: human, plasma, oral, 4.5 mg, healthy non-Asian participants, single dose 4.5 mg verinurad; geometric mean (gCV%); read-out: Cmax
Endpoint Label: Cmax (ng/mL)
I only need the number, in ng/mL, no unit after it.

Entry CC(C)(Sc1ccncc1-c1ccc(C#N)c2ccccc12)C(=O)O : reported Cmax = ?
11.8

* * *

Assay: Study 1 plasma pharmacokinetics of verinurad, allopurinol and oxypurinol
Format: in vivo, human
Settings: human, plasma, oral, healthy Chinese participants, 12 mg verinurad + 300 mg allopurinol day 1 and QD days 3-9, Day 9; median (range); read-out: tmax
The following compounds are listed with their measured Tmax values.
# output: bare number, implied unit h

Compound | Tmax [h]
CC(C)(Sc1ccncc1-c1ccc(C#N)c2ccccc12)C(=O)O | 5.5
Oc1ncnc2[nH]ncc12 [allopurinol, reference compound] | 2.55

Turning now to a further record.
Endpoint output: Tmax of O=c1[nH]c(=O)c2c[nH]nc2[nH]1 . Value?
3.1

* * *

Assay: Study 2 plasma pharmacokinetics of verinurad
Assay type: in vivo, human
Conditions: human, plasma, oral, 12 mg, healthy non-Asian participants, multiple-dose assessment 12 mg verinurad QD, Day 7; geometric mean (gCV%); read-out: Cmax
Endpoint Label: Cmax (ng/mL)
Form entry: value (ng/mL) — number only.

Given CC(C)(Sc1ccncc1-c1ccc(C#N)c2ccccc12)C(=O)O , state its recorded Cmax.
36.3

* * *

Experiment: Study 2 plasma pharmacokinetics of verinurad
Assay type: in vivo, human
Settings: human, plasma, oral; healthy non-Asian participants, multiple-dose assessment 12 mg verinurad QD, Day 1; geometric mean (gCV%); read-out: t½λz (converted)
Endpoint Label: half-life (min)
API: value field is a number in min; no unit string.

Name the reported half-life value associated with the compound CC(C)(Sc1ccncc1-c1ccc(C#N)c2ccccc12)C(=O)O
429

* * *

Test: Study 2 plasma pharmacokinetics of verinurad
Format: in vivo, human
Settings: human, plasma, oral, 12 mg, healthy non-Asian participants, single dose 12 mg verinurad; geometric mean (gCV%); read-out: AUCτ
Endpoint Label: AUC (ng·h/mL)
Answer in ng·h/mL, number only, no unit symbol.

Can you share its AUC? I mean this compound: CC(C)(Sc1ccncc1-c1ccc(C#N)c2ccccc12)C(=O)O
168

* * *

Experiment: Study 2 plasma pharmacokinetics of verinurad
Format: in vivo, human
Conditions: human, plasma, oral, 6 mg, healthy non-Asian participants, single dose 6 mg verinurad; geometric mean (gCV%); read-out: AUCτ
Endpoint Label: AUC (ng·h/mL)
Give just the number in ng·h/mL; leave the unit off.

# lookup: AUC of CC(C)(Sc1ccncc1-c1ccc(C#N)c2ccccc12)C(=O)O
80.8

* * *

Some compounds, each annotated with its measured Cmax.
Test: Study 1 plasma pharmacokinetics of verinurad, allopurinol and oxypurinol
Type: in vivo, human
Settings: human, plasma, oral, healthy Asian participants, 24 mg verinurad + 300 mg allopurinol QD, Day 7; geometric mean (gCV%); read-out: Cmax
I only need the number, in ng/mL, no unit after it.

What value of Cmax has been reported for the following compound? Oc1ncnc2[nH]ncc12 [allopurinol, reference compound]
1780

Consider the compound shown here: O=c1[nH]c(=O)c2c[nH]nc2[nH]1 What is its recorded Cmax?
7700

* * *

Assay: Study 2 plasma pharmacokinetics of verinurad
Type: in vivo, human
Conditions: human, plasma, oral, 12 mg, healthy non-Asian participants, multiple-dose assessment 12 mg verinurad QD, Day 1; geometric mean (gCV%); read-out: AUCτ
Endpoint Label: AUC (ng·h/mL)
Your answer is read as ng·h/mL, so omit the unit and give the number.

What value of AUC has been reported for the following compound? CC(C)(Sc1ccncc1-c1ccc(C#N)c2ccccc12)C(=O)O
209

* * *

Assay: Study 1 plasma pharmacokinetics of verinurad, allopurinol and oxypurinol
Type: in vivo, human
Settings: human, plasma, oral, healthy Asian participants, 24 mg verinurad + 300 mg allopurinol QD, Day 1; arithmetic mean (SD); read-out: t½λz (converted)
Endpoint Label: half-life (h)
Reply numerically in h, unit not repeated.

Entry CC(C)(Sc1ccncc1-c1ccc(C#N)c2ccccc12)C(=O)O : reported half-life = ?
5.98
